# Tested on: SK-MEL-28 melanoma
# Method summary: NCI-60 one-dose screen, 48 h (100 = growth as untreated, 0 = no growth, -100 = all killed)
# Assay setup: 10 µM
This is part of a sample that, as a whole, favours compounds with a hit. Of some 83,000 tested, about 20% had one in any assay.
API: label(entry) gives Criterion met if the entry's growth is strictly smaller than 60%; on equality or larger values it gives Criterion not met.

>  <Compound>
COc1cc(C(=O)N2CCN(c3ccccc3OC)CC2)c(N)cc1OCCCN1CCN(c2ccccc2OC)CC1

>  <Classification>
Criterion not met

$$$$
>  <Compound>
COc1ccc2c(c1OC)O/C(=C\c1ncc([N+](=O)[O-])n1C)C2=O

>  <Classification>
Criterion met

$$$$
>  <Compound>
CN(C)CCN=c1nc2c(c(N)n1-c1ccccc1)c(=S)n(-c1ccccc1)c(=S)n2-c1ccccc1

>  <Classification>
Criterion met

$$$$
>  <Compound>
O=C1OCC2=C1C(c1cccc(Br)c1)c1cc3c(cc1N2CCO)CCC3 (stereo not given)

>  <Classification>
Criterion not met

$$$$
>  <Compound>
Clc1ccc(Nc2ccnc(NCCNc3ccnc4cc(Cl)ccc34)n2)cc1

>  <Classification>
Criterion met

$$$$
>  <Compound>
COc1cc(-c2cc(/C=C/C(=O)c3ccc(F)c(F)c3)[nH]n2)cc(OC)c1OC

>  <Classification>
Criterion not met

$$$$
>  <Compound>
CCN(CC)CCOc1nc2ccc(OC)cc2c2c1-c1ccc(OC)cc1C2=O

>  <Classification>
Criterion met

$$$$
>  <Compound>
COc1cc(-c2nn3c(/C=C4/C(=O)Nc5ccccc54)c(-c4ccc(C)cc4)nc3s2)cc(OC)c1OC

>  <Classification>
Criterion met

$$$$
>  <Compound>
COC(=O)C1=NNC(=S)N(c2cc(C)[nH]n2)C(=O)C1

>  <Classification>
Criterion not met

$$$$
>  <Compound>
COc1cccc(Cn2c(-c3nonc3N)nc3ccccc32)c1

>  <Classification>
Criterion met

$$$$
>  <Compound>
COc1ccc(-c2cc(/C=C3\C(=O)Nc4ccc(Cl)cc43)[nH]n2)cc1OC

>  <Classification>
Criterion not met

$$$$
>  <Compound>
CN(C)C=Nc1cc(Cl)ccc1Cl

>  <Classification>
Criterion not met

$$$$
>  <Compound>
Cc1cc2ccccc2nc1-c1ccccc1F

>  <Classification>
Criterion not met

$$$$
>  <Compound>
N#Cc1ncc(-c2cc(F)c(F)c(F)c2)c(NC2CCCCCC2)n1

>  <Classification>
Criterion not met

$$$$
>  <Compound>
COc1cc(NC(=O)CCSc2nc3ccc(C)cc3c(=O)n2Cc2ccccc2)cc(OC)c1OC

>  <Classification>
Criterion not met

$$$$
>  <Compound>
COc1ccc2c(c1)[n+]([O-])c(C#N)c(NC(=O)c1ccco1)[n+]2[O-]

>  <Classification>
Criterion not met

$$$$
>  <Compound>
O=C(Nc1nc2ccccc2s1)Nc1ccc([N+](=O)[O-])cc1Cl

>  <Classification>
Criterion not met

$$$$
>  <Compound>
N#Cc1cccc(OCc2nc(N)nc(N)c2-c2ccc(Cl)c(Cl)c2)c1

>  <Classification>
Criterion met

$$$$
>  <Compound>
CCC(=O)N1C/C(=C/c2ccc(Br)cc2)C(=O)/C(=C/c2ccc(Br)cc2)C1

>  <Classification>
Criterion met

$$$$
